- subject_of_test: T1, human GIP receptor (human) (UniProt P48546)
- T1 sequence (looked up): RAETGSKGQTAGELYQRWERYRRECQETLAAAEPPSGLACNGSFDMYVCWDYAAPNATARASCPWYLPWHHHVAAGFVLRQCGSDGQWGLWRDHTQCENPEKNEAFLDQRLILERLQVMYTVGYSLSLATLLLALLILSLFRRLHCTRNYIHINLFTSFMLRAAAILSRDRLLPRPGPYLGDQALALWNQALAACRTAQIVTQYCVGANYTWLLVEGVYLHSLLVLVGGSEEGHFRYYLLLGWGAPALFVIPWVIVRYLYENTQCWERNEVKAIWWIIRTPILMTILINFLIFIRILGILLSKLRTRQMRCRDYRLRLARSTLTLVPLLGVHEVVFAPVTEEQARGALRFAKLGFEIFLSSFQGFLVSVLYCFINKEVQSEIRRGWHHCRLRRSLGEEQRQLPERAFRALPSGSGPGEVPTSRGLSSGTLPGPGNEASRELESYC
- experiment_notes: cell-based or functional assay
Starred links: 1 amine or outer side, 2 acyl side, 3 side chain; linkers in the order of their positions; H or OH if unused. Non-standard residues stand in square brackets, D forms with d. Groups on a side chain read outwards from the residue. No end group written: not given here. *: point of attachment. C20 diacid = O=C(O)CCCCCCCCCCCCCCCCCCC(=O)*; αMePhe(2-F) = C[C@](N)(Cc1ccccc1F)C(=O)O; γGlu = O=C(O)[C@H](CCC(=O)[*:2])N[*:1]; Orn = NCCC[C@H](N)C(=O)O; AEEA = NCCOCCOCC(=O)O; Aib = CC(C)(N)C(=O)O
endpoint_label: cAMP Rel EC50 (1% HSA) (nM)
Provide the reading as a plain figure in nM.

# binder, cAMP Rel EC50 (1% HSA) (nM)
data = [
    ("Y[Aib]QGT[αMePhe(2-F)]TSDYSKLLDKIAQK([AEEA-γGlu-C20 diacid])[Orn]FIEWLIEGGPSSGEPPPSEG-NH2 [Example 310]", 15),
    ("YXQGTFTSDXSQXLDKKAQXAFIEYLIEXGPSSGAPPPSGSE (acylated lysine γGlu-C18 diacid; non-natural residues; C-terminal amide; synthetic construct; SITE 2: note = 2-Aminoisobutyric Acid; SITE 10: note = 3-(4-Pyridyl)-L-alanine; SITE 13: note = alpha-methyl-leucine; SITE 17: note = Lysine is chemically modified through conjugation of the epsilon-amino group of the Lysine side chain with (D-Glutamic acid)2-(gamma-Glu)-CO-(CH2)) [Example 925]", 23),
]

Q. Which measured cAMP Rel EC50 (1% HSA) value corresponds to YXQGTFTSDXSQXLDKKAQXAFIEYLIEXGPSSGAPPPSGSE (γGlu-C18 diacid on Lys; non-natural residues; amide; synthetic construct; SITE 2: note = 2-Aminoisobutyric Acid; SITE 10: note = 3-(4-Pyridyl)-L-alanine; SITE 13: note = alpha-methyl-leucine; SITE 17: note = Lysine is chemically modified through conjugation of the epsilon-amino group of the Lysine side chain with (gamma-Glu)-(D-Glutamic acid)2-CO-(CH2)) [Example 926] ?
A. 13.5

Q. Which measured cAMP Rel EC50 (1% HSA) value corresponds to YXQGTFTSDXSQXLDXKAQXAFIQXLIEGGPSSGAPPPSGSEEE (Aib, 4Pal, αMeL, Orn, Me4Pal, αMeY; γGlu-C18 diacid Lys; amide; synthetic construct; SITE 2: note = 2-Aminoisobutyric Acid; SITE 10: note = 3-(4-Pyridyl)-L-alanine; SITE 13: note = alpha-methyl-leucine; SITE 16: note = L-ornithine; SITE 17: note = Lysine is chemically modified through conjugation of the epsilon-amino group of the Lysine side chain with D-Glutami) [Example 1076] ?
A. 20.2
